Ref: the nanobody polyreactivity screen of Harvey et al. (2022)

assay-procedure: yeast display, Sf9 membrane polyspecificity reagent, FACS + sequencing; frameworks hold sequencing errors
result-type: polyreactivity (PSR sort gate)

* QVQLVESGGGLVQAGGSLRLSCAASGSIFDFYGMGWYRQAPGKERELVATITGTGGGTYYADSVKGRFTISRDNAKNTVYLQMNSLKPEDTAVYYCAADYPYGYWRGLFYYWGHGTQVTVSS | low polyreactivity
* QVQLVESGGGLVQAGGSLRLSCAASGFIFYIYAMGWYRQAPGKERELVAAFTSGGSTYYADSVKGRFTISRDNAKNTVYLQMNSLKPEDTAVYYCAAESYYGYDYWGQGTQVTVSS | low polyreactivity
* QVQLVESAGGLVQAGGSLRLSCAASGSIFSPYAMGWYRQAPGKERELVAAITWNGGRTYYADSVKGRFTISRDNAKNTVYLHMNSLKPEDTAVYYCTAASQSRYYYWGQGTQVTVSS | high polyreactivity
* HVQLVESGGGLVQAGGSLRLSCAASGSTCRYYARGWYRQAPGKERELGAAISGRGARTYYADSVKGRFTISRDNAKNTVYLQMNSLKPEDTAVYYCAAVGYRYRHSRYYWGQGTQVTVSS | high polyreactivity
* QVQLVETGGGLVQAGGSLRLSCAASFRSNTMGGYRQAPRKERELVAAISGSGSRTYYADSVKGRFTISRDNAKKTVYLQMNSLKPEDTAVYYCAALSYRNSEVGTSRGDYWGQGTQVTVSS | high polyreactivity
* QVQLVESGGGLVQAGGSLRLSCAASGRTFFPYAMGWYRPAPGKEREFVAAITKTDDSTYYADSVKGRFTISRDNAKNTVYLQMNSLKPEDTAVYYCNAGDTQIRFYYWGQGTQVTVSS | low polyreactivity
* QVQRVESGGGLDQAGGSLRLSCAAYGRTFGLNAMGWYRQAPGKESELVAVISFGDGGKYYADSVKGRFTISRDNAKHTVYLQMNSLKPEDTAVYYCATEYQSTSVWGGHLVINPYDYWGQGTQVTVSS | low polyreactivity
* QVQLVESGGGLVQAGGSLRLSCAASGRIFRYYTMGWYRQAPGKERELVAAISWTGGRTYYADSVKGRFTISRDNAKNTVYLQMNSLKPEDTAVYYCAATNRYYIFDYWGQGTQVTVSS | high polyreactivity
* QVQLVESGGGLVQAGGTLRLSCAASGIIFYYYAMGWYRQAPGKERELVAAITGTGSRTYYADSVKGRFTISRDNAKNTVYLQMNSLKPEDTADYYCNARSFATGSKVPARGYWGQGTQVTVSS | high polyreactivity
* QVQLVESGGGLVQAGGSLRLSCSASGLIFRYYAMGWYRQAPGKEREFVAAISGRGASTYYADSVKGRFTISRDNSKNTVYLQMNSLKPEDTAVYYCATYFPSAVVAFHMEYWGQGTQVTVSS | low polyreactivity
* QVQLVESGGGLVQAGGSLRLSCAASGSIFHRYAMGWYRQAPGKEREFVAAISGRGGSTYYADSVKGRFTISRDNAKNSVYLQMNSLKPEDTAVYYCAADSSRFYGRPRYYYWGQGTQVTVSS | high polyreactivity

---

assay-procedure: yeast display, Sf9 membrane polyspecificity reagent, FACS + sequencing; frameworks hold sequencing errors
result-type: polyreactivity (PSR sort gate)

* QVQLVESGGGLVQAGGSLRLSCADSGRIFVAYAMGWYRQAPGKERELFADITWSGDITYYADSVKGRFTISRDNAKNTVYLQMNSLKPEDTAVYYCAADYHRRRTDYDYWGQVTQVTVSS | low polyreactivity
* QVQLQESGGGLVQAGGSLRLSCAESGTIFRISDMGSYRQAPGKEREFVASITYGANTYYADSGKGRFTISRDNAKNTVYLQMNSLKPEDTAVYYCAVPPVKETILDYWGQGTQVTVCS | low polyreactivity
* QVQLVESGGGLVQAGGSLRLSSAASGFIFDFYTMGWYRQAPGKERELVAAITWSGDSTYYADSVKGRFTISRDNAKNTVYLQMNSLKPEDTAVYYCASDLSYNPGYDYWGQGTQVTVSS | low polyreactivity
* QVQLVESGGGLVQAGGSLRLSCAASGSIFGGYAMGWYRQAPGKERELVAAISRTGGRTYYADSVKGRFTISRDNAKNTVYLQMNSLKPEDTAVYYCAARVVHQSRYSYEYWGQGTQVTVSS | high polyreactivity
* QVQLVESGGGLVQAGGSLRLSCAASGSIFYYYAMGWYRQAPGKERELVAAINSGVSTYYADSVKGRFTISRDNAKNTVYLQMNSLKPEDTAVYYCDATGHNLYGSWFSWTPDTYDYWGQGTQVTVSS | low polyreactivity
* QVQLEESGGGLVQAGGSLRLSCAASGSTFYIYAMGSYRQAPGKERELVARMSGSGGSTYYADSVKGRFTISRDNAKNTVYLQMNSVKPEDTAVYYCAADDIYKYYQYYAFPYYRYDYWGQGTQVTVSS | low polyreactivity
* QVQLVESGGGLVQAGGSLRLSCAASGLTFDYYAMGWYRQAPGKERELVAVISRVGSTYYADSVKGRFTISRDNAKNTVYLQINSLKPEDTAVYYCAADLWHSYQDMYYWGQGTQVTVSS | low polyreactivity
* QVQLVESGGGLVQAGGSLSLICAASGFTFVDYAMGWYRQAPGKERELVAAITVSGDSTYYADSVKGRFTISRDIAKNTVYFQMNSLKPEDTAVYYCAADPGYYDGGYWGQGTQVTVSS | low polyreactivity
* QVQLVESGGGLVQAGGSLRLRCAASGSIFVVNAMGWYRPAPGKERELVAAISWSDTTTYYADSVKARFTISRDNAKNTVYLQMNSLKPEDTAVYYCAAGFVIKYDYWGQGTQVTVSS | low polyreactivity
* QVQLVESGGGLVQAGGSLRLSCAASGRTFNFNTMGWYRQAPGKEREFVAAITFRGVRTYYADSVKGRFTISRDNAKNTVYLQMNSLKPEDTAVYYCAADAPRSYRFGYWGQGTQVTVSS | high polyreactivity
* QVQLVDTGGGIVQAGGSLRLSCAASGRTFFWNAMGWYRLAPGKERELVAAITWYGGSTYYADSVKGRFTISRDNAKNTVYLQMNSLKPEDSAVYYCAAVVSDYVWRYEYWGQGTQVTVSS | low polyreactivity
* QVRLVESGGGLVQAGGSLRLSCAASGRIFASYAMGWNRQAPGKETELVAAISKSGGRTYYADSVKGGFTISRDNAKNTVYLQMNSLKPEDTAVYYCAAYFWTRSGTPNYDYWGQGTQVTVSS | high polyreactivity
* QVQIVESGGGLVDAGGSLRLSCAASGRTFPPYAMGWYRQAPGKERELVAAISGSGASTYYADSVKGRFTISRDNAKNTVKLQWISQKPEDTAVYSWARYRGYWGRYYGVHYGYWGQGTQVTVSS | high polyreactivity
* QVQLVESGGGLVQAGGSLRLSCAASGSIFWRYAMGWYRQAPGKERELVAVISDRGGITYYADSVKGRFTISRDNAKNTVYLQMNSLKPEDTAVYYCNAVDSDRSDPSEYDYWGQGTQVTVSS | low polyreactivity
* QVQLVESGRGLVQAGGRLRLSCAASGRTFSRNAMGRYRQAPGKERELVAAISFRGVSTYYADSEKGRFTISRDNAKNTVYLQLNSLKPEDTAVYYCARRYTSKGGYDYWGQGTQVTVSS | high polyreactivity
* QVQLVESGGGLVQAGGSVRLSCAASGSTFYHYALGWYRQAPGKERELVAAISWYGGSTYYADSVKGRFTISRDNAKNTVYLQMNSLKPEDTAVYYCAARGRARQRTSFEYWGQGTQVTVSS | high polyreactivity
* QVQLVESRGGLVQAGGSLRLSCAASGSIFGRNAMGWYRQAPGKERELVAAIRSGDSTNYADSVKGRFTISRDNAKNTVYLQMNSLKPEDTAVYYCAADYIFWHRRDKKSVVMDYWGQGTQVTVSS | low polyreactivity
* QVQLVETGGGLVQAGGSLRLSCAASGSIFPGNAMGWYRQAPGKERELVAVIDFSGASTYYADSVKGRFTISRDNAKNTVYLQMNSLKPEDTADYWGQGTQVTVSS | low polyreactivity
* QVQLVESGGGLVQAGGSLRLSCAASGRTFTSNAMRWYRQEPGNERELVAAISNRGTRTYYADSVKGRFTISRDNAKNTVYLQMHILKPEETAVYYCAASERDQRFKHYYWGLGTQVTVSS | high polyreactivity
* QVQLVESGGGLVQAGGSLRLSCAASGFTFWYYAMGWYRQAPGKERELVAAISWSGVSTYYADSVKGRFTISRDNAKNTVYLQMNSLKPEDTAVYYCNRRARSYADDYWGQGTQVTVSS | high polyreactivity
* QVQLVESGGGLVQAGGSLRLSCAASGSIFILNAMGWYRQAPGKERELGAAISWSGGRTNYADSVKGRFTISRDNAKNPVYLHMNSLKPEDTAVYYCAARVTPYRGFYYWGQGTQVTVSS | high polyreactivity
